Would you mind telling me the reported HEMOGLOBIN of each entry?
Organism: Rattus norvegicus
Assay: DrugMatrix - Regimen: Daily Repeat
Assay type: toxicity, organism-based, Sprague-Dawley
Design: regimen Daily Repeat, gender Male, age 6-8 weeks
Details: in vivo, po, 0 mg/kg, 120 h, tissue Blood, route oral GAVAGE, dose level Control, time 5 day, […]
Give the value, in units of G/DL, as a plain number.

Incoming: Consider the compound CC(C)Cc1ccc(C(C)C(=O)O)cc1 (centres undefined) [IBUPROFEN] and give its measured HEMOGLOBIN.
Outgoing: 13.17

Incoming: Consider the compound O=NN(CCCl)C(=O)NCCCl [CARMUSTINE] and give its measured HEMOGLOBIN.
Outgoing: 13.5

Incoming: Consider the compound COCCOC(=O)C1=C(C)NC(C)=C(C(=O)OC(C)C)C1c1cccc([N+](=O)[O-])c1 (centres undefined) [NIMODIPINE] and give its measured HEMOGLOBIN.
Outgoing: 13.85

Incoming: Consider the compound C[C@H]1O[C@@H](O[C@H]2[C@@H](O)C[C@H](O[C@H]3[C@@H](O)C[C@H](O[C@H]4CC[C@@]5(C)[C@H](CC[C@@H]6[C@@H]5CC[C@]5(C)[C@@H](C7=CC(=O)OC7)CC[C@]65O)C4)O[C@@H]3C)O[C@@H]2C)C[C@H](O)[C@@H]1O [DIGITOXIN] and give its measured HEMOGLOBIN.
Outgoing: 13.38

Incoming: Consider the compound CC(=O)Nc1ccc(O)cc1 [ACETAMINOPHEN] and give its measured HEMOGLOBIN.
Outgoing: 13.5

Incoming: Consider the compound CCCCCCCCc1ccc(O)cc1 [4-OCTYLPHENOL] and give its measured HEMOGLOBIN.
Outgoing: 14.18

Incoming: Consider the compound Clc1ccc(Cl)cc1 [1,4-DICHLOROBENZENE] and give its measured HEMOGLOBIN.
Outgoing: 14.3

Incoming: Consider the compound CC/C(=C(/CC)c1ccc(O)cc1)c1ccc(O)cc1 [DIETHYLSTILBESTROL] and give its measured HEMOGLOBIN.
Outgoing: 13.02

Incoming: Consider the compound COc1ccc2[nH]c([S+]([O-])Cc3ncc(C)c(OC)c3C)nc2c1 (centres undefined) [OMEPRAZOLE] and give its measured HEMOGLOBIN.
Outgoing: 13.5

Incoming: Consider the compound CC(C)(Oc1ccc(C2CCCc3ccccc32)cc1)C(=O)O (centres undefined) [NAFENOPIN] and give its measured HEMOGLOBIN.
Outgoing: 12.73

Incoming: Consider the compound Cc1cccc(Nc2ccncc2S(=O)(=O)NC(=O)NC(C)C)c1 [TORSEMIDE] and give its measured HEMOGLOBIN.
Outgoing: 13.5

Incoming: Consider the compound C[C@]12CC[C@@H]3c4ccc(O)cc4CC[C@H]3[C@@H]1CC[C@@H]2O [ESTRADIOL] and give its measured HEMOGLOBIN.
Outgoing: 13.5

Incoming: Consider the compound CCOC(=O)C1=C(C)NC(C)=C(C(=O)OC)C1c1cccc([N+](=O)[O-])c1 (centres undefined) [NITRENDIPINE] and give its measured HEMOGLOBIN.
Outgoing: 13.85

Incoming: Consider the compound CC(=O)Nc1cccc(O)c1 [METACETAMOL] and give its measured HEMOGLOBIN.
Outgoing: 13.42

====

Organism: Rattus norvegicus
Assay: DrugMatrix - Regimen: Daily Repeat
Format: toxicity, organism-based, Sprague-Dawley
Design: regimen Daily Repeat, gender Male, age 6-8 weeks
Conditions: in vivo, po, 10 mg/kg, 120 h, tissue Plasma, route oral GAVAGE, dose level Low, time 5 day, […]
Property measured: POTASSIUM

Incoming: Consider the compound CC(C)CC(N(C)C)C1(c2ccc(Cl)cc2)CCC1 (centres undefined) [SIBUTRAMINE] and give its measured POTASSIUM.
Outgoing: 6.14 MEQ/L

Incoming: Consider the compound COc1ccc2cc([C@H](C)C(=O)O)ccc2c1 [NAPROXEN] and give its measured POTASSIUM.
Outgoing: 6.26 MEQ/L

Incoming: Consider the compound CCOC(=O)C1=C(C)NC(C)=C(C(=O)OC)C1c1cccc([N+](=O)[O-])c1 (centres undefined) [NITRENDIPINE] and give its measured POTASSIUM.
Outgoing: 5.57 MEQ/L

Incoming: Consider the compound COCCOC(=O)C1=C(C)NC(C)=C(C(=O)OC(C)C)C1c1cccc([N+](=O)[O-])c1 (centres undefined) [NIMODIPINE] and give its measured POTASSIUM.
Outgoing: 5.95 MEQ/L

====

Species: Rattus norvegicus
Assay: DrugMatrix - Regimen: Daily Repeat
Assay type: toxicity, organism-based, Sprague-Dawley
Set-up: regimen Daily Repeat, gender Male, age 6-8 weeks
Details: in vivo, po, 1500 mg/kg, 72 h, tissue Plasma, route oral GAVAGE, dose level High, time 3 day, vehicle .5 % CMC
Property measured: ALANINE AMINOTRANSFERASE
Answer format: number, then unit.

Incoming: Consider the molecule Cc1cc(=O)n(-c2ccccc2)n1C [ANTIPYRINE] and give its measured ALANINE AMINOTRANSFERASE.
Outgoing: 71 u/L

Incoming: Consider the molecule NC(=O)c1cnccn1 [PYRAZINAMIDE] and give its measured ALANINE AMINOTRANSFERASE.
Outgoing: 48.33 u/L

Incoming: Consider the molecule C[C@]1(Cn2ccnn2)[C@H](C(=O)O)N2C(=O)C[C@H]2S1(=O)=O and give its measured ALANINE AMINOTRANSFERASE.
Outgoing: 65.33 u/L

Incoming: Consider the molecule O=C(N[C@H](CO)[C@H](O)c1ccc([N+](=O)[O-])cc1)C(Cl)Cl and give its measured ALANINE AMINOTRANSFERASE.
Outgoing: 78 u/L

Incoming: Consider the molecule CO[C@H]1/C=C/O[C@@]2(C)Oc3c(C)c(O)c4c(c3C2=O)C2=NC3(CCN(CC(C)C)CC3)NC2=C(NC(=O)/C(C)=C\C=C\[C@H](C)[C@H](O)[C@@H](C)[C@@H](O)[C@@H](C)[C@H](OC(C)=O)[C@@H]1C)C4=O and give its measured ALANINE AMINOTRANSFERASE.
Outgoing: 80 u/L

Incoming: Consider the molecule CNC(=C[N+](=O)[O-])NCCSCc1ccc(CN(C)C)o1 and give its measured ALANINE AMINOTRANSFERASE.
Outgoing: 53 u/L

Incoming: Consider the molecule Cc1ccc(S(=O)(=O)NC(=O)NN2CC3CCCC3C2)cc1 (configuration not stated) [GLICLAZIDE] and give its measured ALANINE AMINOTRANSFERASE.
Outgoing: 29 u/L

====

Organism: Rattus norvegicus
Experiment: DrugMatrix - Regimen: Daily Repeat
Format: toxicity, organism-based, Sprague-Dawley
Parameters: regimen Daily Repeat, gender Male, age 6-8 weeks
Details: in vivo, po, 1500 mg/kg, 72 h, tissue Blood, route oral GAVAGE, dose level High, time 3 day, vehicle .5 % CMC
Property measured: PLATELET COUNT
Answer format: number, then unit.

Incoming: Consider the compound Cc1ccc(S(=O)(=O)NC(=O)NN2CC3CCCC3C2)cc1 (configuration not stated) [GLICLAZIDE] and give its measured PLATELET COUNT.
Outgoing: 1204.33 x10E3/uL

Incoming: Consider the compound C[C@]1(Cn2ccnn2)[C@H](C(=O)O)N2C(=O)C[C@H]2S1(=O)=O and give its measured PLATELET COUNT.
Outgoing: 1291.33 x10E3/uL

Incoming: Consider the compound Cc1cc(=O)n(-c2ccccc2)n1C [ANTIPYRINE] and give its measured PLATELET COUNT.
Outgoing: 1257 x10E3/uL

Incoming: Consider the compound NC(=O)c1cnccn1 [PYRAZINAMIDE] and give its measured PLATELET COUNT.
Outgoing: 1418.67 x10E3/uL

Incoming: Consider the compound CO[C@H]1/C=C/O[C@@]2(C)Oc3c(C)c(O)c4c(c3C2=O)C2=NC3(CCN(CC(C)C)CC3)NC2=C(NC(=O)/C(C)=C\C=C\[C@H](C)[C@H](O)[C@@H](C)[C@@H](O)[C@@H](C)[C@H](OC(C)=O)[C@@H]1C)C4=O and give its measured PLATELET COUNT.
Outgoing: 1375.67 x10E3/uL

Incoming: Consider the compound O=C(N[C@H](CO)[C@H](O)c1ccc([N+](=O)[O-])cc1)C(Cl)Cl and give its measured PLATELET COUNT.
Outgoing: 1264 x10E3/uL

Incoming: Consider the compound CNC(=C[N+](=O)[O-])NCCSCc1ccc(CN(C)C)o1 and give its measured PLATELET COUNT.
Outgoing: 1234.33 x10E3/uL

====

Species: Rattus norvegicus
Assay: DrugMatrix - Regimen: Daily Repeat
Type: toxicity, organism-based, Sprague-Dawley
Set-up: regimen Daily Repeat, gender Male, age 6-8 weeks
Details: in vivo, po, 0 mg/kg, 120 h, tissue Plasma, route oral GAVAGE, dose level Control, time 5 day, vehicle .5 % CMC
Would you mind telling me the reported CREATININE of each entry?
Give the value, in units of mg/dL, as a plain number.

Incoming: Consider the molecule CN1C(=O)COc2c(C(=O)NC3CN4CCC3CC4)cc(Cl)cc21 (stereo not drawn) and give its measured CREATININE.
Outgoing: 0.21

Incoming: Consider the molecule CC[C@@H](CO)NCCN[C@@H](CC)CO and give its measured CREATININE.
Outgoing: 0.6

Incoming: Consider the molecule C#C[C@]1(O)CC[C@H]2[C@@H]3CCc4cc(OC)ccc4[C@H]3CC[C@@]21C and give its measured CREATININE.
Outgoing: 0.22
